Item-by-item account of activity change, negative = activation
# Tested on: intestinal alkaline phosphatase [Mus musculus]
# experimentNotes: mouse intestinal phosphatase enzyme activation – biochemical, luminescence, single concentration, confirmation (AID 434970)
# experimentalSetup: purified mouse IAP, CDP-Star luminescence, 30 min, at 10 µM; stronger effect = lower value
In all, about 11,000 compounds went through this assay and about 310 (2.8%) were called active. This is one part of a sample in which actives are shown more often than they occur.

compound | activity change, negative = activation [%]
CN(C)CCCNC(=O)C[C@H]1C[C@H](C(=O)N2CCCCC2)[C@@]2(CCc3ccccc3)c3[nH]c4cc(-c5ccco5)ccc4c3CCN2C1=O | -28.4
COc1cc(NC(=O)C2CCCN(c3ncccn3)C2)cc(OC)c1 (centres undefined) | -10.6
O=C(C[C@H]1C[C@H](C(=O)N2CCCCC2)[C@@]2(CCc3ccccc3)c3[nH]c4cc(-c5ccco5)ccc4c3CCN2C1=O)NCc1ccco1 | -16.1
CC(C)N(C(=O)[C@H]1C[C@H](CC(=O)NCCc2ccccn2)C(=O)N2CCc3c([nH]c4cc(-c5ccco5)ccc34)[C@]12C)C(C)C | -14.4
O=C(NCC1CCN(Cc2ccccc2Cl)CC1)Nc1cccc(Cl)c1 | -77.5
CC(C)C(=O)Nc1ncc(C(F)(F)F)cc1Cl | -2.1
Fc1cc(NC(=S)NCc2ccc(CNC(=S)Nc3ccc(Cl)c(F)c3)cc2)ccc1Cl | -44.1
CCN(CC)S(=O)(=O)c1ccc(Cl)c(C(=O)Oc2cccnc2)c1 | 8.05
O=C(NCCOc1ccccc1F)Nc1ccc(Br)cc1 | -45.9

---

# Tested on: intestinal alkaline phosphatase [Mus musculus]
# experimentNotes: mouse intestinal phosphatase enzyme activation – biochemical, luminescence, single concentration, confirmation (AID 434970)
# experimentalSetup: purified mouse IAP, CDP-Star luminescence, 30 min, at 10 µM
The campaign covered roughly 11,000 compounds. About 310 (2.8%) were called active. Rule as the data show it: active = activity change below about -85%; inactive = the rest. Many of the other results were omitted from the sample, so actives are more common in it than they were.
Classes used: yes (1) for active, no (0) for inactive

molecule | className
Cc1ccc(NC(=S)NC2CCSc3ccccc32)cc1 (stereo unspecified) | no (0)
CC(C)[C@@H](CO)N(C)S(=O)(=O)c1ccccc1Br | no (0)
Cc1onc(-c2ccccc2Cl)c1C(=O)OCC(=O)N1CCCc2ccccc21 | no (0)
S=C(NCc1ccccc1)NCc1ccc(CNC(=S)NCc2ccccc2)cc1 | no (0)
CNC(=O)/C(C#N)=C/c1ccc(-c2ccc(OC)cc2[N+](=O)[O-])o1 | no (0)
FC(F)Oc1ccc(NC(=S)NC2CCSc3ccccc32)cc1 (stereo unspecified) | yes (1)
Cc1cccc(-n2c(SCC(=O)Nc3ccc4c(c3)OCO4)nnc2-c2ccoc2C)c1 | no (0)
NS(=O)(=O)c1cc(C(=O)NC2CCSc3ccccc32)ccc1Cl (stereo unspecified) | no (0)
COc1ccccc1CC(=O)N(CCC#N)CCC#N | no (0)
S=C(NCc1ccccc1)NC1CCCc2ccccc21 (stereo unspecified) | no (0)
FC(F)Oc1ccc(NC(=S)NC2CCCCCCC2)cc1 | no (0)

---

# Tested on: intestinal alkaline phosphatase [Mus musculus]
# experimentNotes: mouse intestinal phosphatase enzyme activation – biochemical, luminescence, single concentration, confirmation (AID 434970)
# experimentalSetup: purified mouse IAP, CDP-Star luminescence, 30 min, at 10 µM; measured here: IAP activation factor, stronger effect = higher value
In all, about 11,000 compounds went through this assay and about 310 (2.8%) were called active. Shown is part of a subset that was picked to be rich in actives.
Criterion: activation factor meeting or surpassing 2. Met: satisfied. Not met: not satisfied.

compound | className
O=C(Nc1ccc(Cl)c(C(F)(F)F)c1)NC1CC2CCCC(C1)N2Cc1ccccc1 (stereo unspecified) | satisfied
Fc1ccc2[nH]c3c(NCCN4CCOCC4)ncnc3c2c1 | not satisfied
O=C(Nc1ccccc1-c1ccccc1)NC1CC2CCCC(C1)N2CCc1ccccc1 (stereo unspecified) | not satisfied
Cc1ccc(N/C(N)=N/c2nc(C)cc(N3CCCCC3)n2)c(C)c1 | satisfied
Cc1ccc(NC(=O)C2CCN(C(=O)NC3CCCCC3)CC2)c(C)c1 | not satisfied
COC(=O)c1ccc(CNC(=O)Cn2cnc3c(NCc4ccccc4)ncnc32)cc1 | not satisfied
COc1ccc2[nH]c3c(N4CC(C)OC(C)C4)ncnc3c2c1 (stereo unspecified) | not satisfied
O=C(Cn1cnc2c(NCc3ccccc3)ncnc21)NCc1ccc2[nH]ccc2c1 | not satisfied
Cc1ccc2[nH]c3c(NCc4ccccc4)ncnc3c2c1 | satisfied
O=C(Cn1cnc2c(NCc3ccccc3)ncnc21)NCc1ccccc1 | not satisfied
O=C(Nc1ccccc1-c1ccccc1)NC1CC2CCCC(C1)N2Cc1ccc(F)cc1 (stereo unspecified) | satisfied

---

# Tested on: intestinal alkaline phosphatase [Mus musculus]
# experimentNotes: mouse intestinal phosphatase enzyme activation – biochemical, luminescence, single concentration, confirmation (AID 434970)
# experimentalSetup: purified mouse IAP, CDP-Star luminescence, 30 min, at 10 µM; measured here: IAP activation factor, stronger effect = higher value
About 310 (2.8%) of roughly 11,000 compounds were called active. The entries come from a sample that favours actives as a whole.
We'd kindly ask you to apply these activation factor classes: LOW: < 1; MID: ≥ 1 and < 2; HIGH: ≥ 2

compound | className
CCN(CC)S(=O)(=O)c1cccc(C(=O)Nc2cccc(C)c2)c1 | LOW
O=C(NN1C(=O)CSC1=S)C(=O)NN1C(=O)CSC1=S | LOW
COc1ccccc1[C@H]1C(c2ccc(F)cc2)=NN(c2ccccc2)[C@@H]1CO | MID
CC(C)(C)OC(=O)N[C@@H](Cc1ccccc1)c1nnc(SCC(=O)O)o1 | LOW
COc1cccc(NC(=O)COC(=O)c2cc(S(=O)(=O)N3CCOCC3)ccc2C)c1 | LOW
CN(c1cccc(NC(=O)Nc2ccc(Cl)cc2)c1)S(C)(=O)=O | MID
CCc1cccc(CN2CCC(CNC(=O)Nc3ccc(Cl)cc3)CC2)c1 | MID
CN1CCN(NC(=O)Nc2cc(Cl)cc(Cl)c2)CC1 | HIGH
O=C(Nc1ccccc1)Nc1cccc(C(F)(F)F)c1 | MID
CCCCOc1ccc(-c2nnc(-c3ccncc3)o2)cc1 | LOW
CCNS(=O)(=O)c1ccc(NC(=O)Nc2cccc(C(F)(F)F)c2)cc1 | MID
O=C(Nc1nc2ccc(S(=O)(=O)N3CCCCC3)cc2s1)C1CCCO1 (stereo not drawn) | LOW
CCCCCOc1ccc(C(=O)CCC(=O)NNC(=O)c2ccncc2)cc1 | HIGH
CCCN1Cc2cc(OC)ccc2-c2ccccc2S1(=O)=O | MID
CCc1ccc(NC(=O)NCC2CCN(Cc3cccc(Cl)c3)CC2)cc1 | HIGH
CCN(CC)S(=O)(=O)c1ccc(NC(=O)CN(c2cccc(F)c2)S(C)(=O)=O)cc1 | LOW
Cc1cccc(CN2CCC(CNC(=O)Nc3ccc(F)c(Cl)c3)CC2)c1 | HIGH
O=C(NCc1ccc2c(c1)OCO2)c1cccnc1 | MID
CN(c1cccc(NC(=O)Nc2cccc(Cl)c2)c1)S(C)(=O)=O | HIGH
CCOC(=O)c1c(-c2ccccc2)oc2ccc(O)c(CN(C)C)c12 | LOW
NC(=O)CSc1nnc(-c2cccnc2)n1CCc1ccccc1 | LOW

---

# System: intestinal alkaline phosphatase [Mus musculus]
# experimentNotes: mouse intestinal phosphatase enzyme activation – biochemical, luminescence, single concentration, confirmation (AID 434970)
# experimentalSetup: purified mouse IAP, CDP-Star luminescence, 30 min, at 10 µM; stronger effect = lower value
In all, about 11,000 compounds went through this assay and about 310 (2.8%) were called active. The full list was thinned out, with actives kept by preference.
Label 1 when activity change, negative = activation is strictly below -70%; at or above that, label 0.

compound | experimentalTarget | className
O=C(Nc1cccc(C(F)(F)F)c1)Nc1ccc(N2CCCC2)c(S(=O)(=O)Nc2ccccc2Cl)c1 | intestinal alkaline phosphatase [Mus musculus] | 0
CCOC(=O)c1cnn(-c2ccc(Cl)cc2)c1C1CCN(C(=O)OC(C)(C)C)CC1 | intestinal alkaline phosphatase [Mus musculus] | 0
Fc1ccccc1Cn1nnc2c(NCc3ccccn3)ncnc21 | intestinal alkaline phosphatase [Mus musculus] | 0
S=C(NCCC(c1ccccc1)c1ccccc1)Nc1cccc(Cl)c1 | intestinal alkaline phosphatase [Mus musculus] | 1
Cc1ccc(S(=O)(=O)N2CCN(C(=O)CSc3nc4ccccc4c(=O)[nH]3)CC2)c(C)c1 | intestinal alkaline phosphatase [Mus musculus] | 0
O=C(c1ccc(C(=O)N2CCOCC2)nc1)N1CCOCC1 | intestinal alkaline phosphatase [Mus musculus] | 0
S=C(NCCC(c1ccccc1)c1ccccc1)Nc1ccc(Cl)cc1 | intestinal alkaline phosphatase [Mus musculus] | 1
CC(C)N1CC2=C(OC(N)=C(C#N)C2c2cccnc2)/C(=C/c2cccnc2)C1 (configuration not stated) | intestinal alkaline phosphatase [Mus musculus] | 0
CC(=O)NC1=NN(C(C)=O)C(c2cccs2)S1 (configuration not stated) | intestinal alkaline phosphatase [Mus musculus] | 0
Cc1oc(-c2ccc3c(c2)OCCO3)cc1C(=O)NC(CCC(=O)O)C(=O)O (configuration not stated) | intestinal alkaline phosphatase [Mus musculus] | 0
CCN1Cc2cc(OC)ccc2-c2ccccc2S1(=O)=O | intestinal alkaline phosphatase [Mus musculus] | 0
CC1(C)N=C(SCC(=O)Nc2ccccc2)C(c2ccc(Cl)cc2)=N1 | intestinal alkaline phosphatase [Mus musculus] | 0
CCc1ccc(NC(=S)NC2CC3CCCC(C2)N3Cc2ccccc2)cc1 (configuration not stated) | intestinal alkaline phosphatase [Mus musculus] | 1
CCc1ccc(NC(=S)NC2CC3CCCC(C2)N3Cc2cccs2)cc1 (configuration not stated) | intestinal alkaline phosphatase [Mus musculus] | 1
Brc1ccc(-c2cnc(-c3cccs3)o2)cc1 | intestinal alkaline phosphatase [Mus musculus] | 0
COc1ccc2c(c1)[nH]c1c(=O)n(CCc3cnc[nH]3)cnc12 | intestinal alkaline phosphatase [Mus musculus] | 0
Cc1ccc(C)c(NC(=S)NC2CC3CCCC(C2)N3CC(C)C)c1 (configuration not stated) | intestinal alkaline phosphatase [Mus musculus] | 0
CCOC(=O)c1ccc(NC(=O)NC2CC3CCC(C2)N3Cc2nnnn2Cc2ccco2)cc1 (configuration not stated) | intestinal alkaline phosphatase [Mus musculus] | 1
CC(CN1CCN(C)CC1)OC(=O)c1ccc(Cl)cc1 (configuration not stated) | intestinal alkaline phosphatase [Mus musculus] | 0
COc1ccc(CN2C3CCCC2CC(NC(=O)Nc2cccc(C)c2)C3)cc1 (configuration not stated) | intestinal alkaline phosphatase [Mus musculus] | 1
O=C(Nc1ccccc1)NC1CC2CCC(C1)N2Cc1nnnn1Cc1ccc2c(c1)OCO2 (configuration not stated) | intestinal alkaline phosphatase [Mus musculus] | 1
